# run-description: xn = mol fraction of the nth substance listed
# condition-set: 313.15 K; 101.3 kPa; Liquid; x2 = 0.5
± gives the expanded uncertainty stated by the source.
measured-metric: viscosity

Use these answered entries as a reference point.
CCCC(C)CO (centres undefined) [2-methyl-1-pentanol] + CCCCN; 1.11 ± 0.06 mPa·s
CCCCC(C)O (centres undefined) [2-hexanol] + CCCCN; 0.98 ± 0.05 mPa·s
CC(C)CC(C)O (centres undefined) [4-methyl-2-pentanol] + CCCCN; 0.91 ± 0.05 mPa·s

// switching to the query compound
Ask | Quick one: viscosity for CCCC(O)CC (centres undefined) [3-hexanol] + CCCCN ?
Reply | 0.89 ± 0.05 mPa·s
